Target: Alpha-2A adrenergic receptor (Homo sapiens, UniProt P08913)
Sequence (P08913 whole entry): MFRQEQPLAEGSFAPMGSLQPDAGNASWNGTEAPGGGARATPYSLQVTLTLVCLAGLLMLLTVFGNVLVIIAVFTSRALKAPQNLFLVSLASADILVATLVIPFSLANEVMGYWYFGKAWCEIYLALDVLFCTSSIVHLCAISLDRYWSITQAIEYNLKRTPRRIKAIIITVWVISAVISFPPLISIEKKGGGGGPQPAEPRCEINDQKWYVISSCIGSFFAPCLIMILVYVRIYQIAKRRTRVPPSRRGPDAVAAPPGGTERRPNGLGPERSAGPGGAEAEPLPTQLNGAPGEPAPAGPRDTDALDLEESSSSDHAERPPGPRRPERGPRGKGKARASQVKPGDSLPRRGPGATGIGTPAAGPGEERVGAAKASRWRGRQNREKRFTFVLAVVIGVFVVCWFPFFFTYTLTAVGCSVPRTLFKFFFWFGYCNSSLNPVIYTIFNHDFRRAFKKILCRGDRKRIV
Please find below Ki data on Alpha-2A adrenergic receptor (Homo sapiens, UniProt P08913) compiled from the literature.
Test Readout: Ki (nM)

I: c1ccc(-n2cccn2)c([C@@H]2Cc3nccn3C2)c1
II: CC1=C(C(=O)NCCCN2CCC(C#N)(c3ccc(F)cc3C#N)CC2)[C@@H](c2ccc(F)c(F)c2)CC(=O)N1
Higher Ki: I or II ? Answer by quoting the chosen item's label.
II
(II: 7850 nM, I: 1100 nM)

1: COc1cc2nc(N3CCN(C(=O)C4CCCO4)CC3)nc(N)c2cc1OC (stereo not given)
2: COc1c(OCCF)cccc1C(=O)C1CCN(CCc2ccc(F)cc2)CC1
Would you kindly point out which of 1 and 2 has the smaller Ki figure? Answer by quoting the chosen item's label.
2

1: c1ccc([C@@H]2Cc3nccn3C2)c(-c2ccncc2)c1
2: c1c[nH]c(Nc2ccc3[nH]cnc3c2)n1
Would you kindly point out which of 1 and 2 has the smaller Ki figure? Answer by quoting the chosen item's label.
2
(2: 76 nM, 1: 112 nM)

====

Please find below Ki data on Alpha-2A adrenergic receptor (Homo sapiens) compiled from the literature.
Test Readout: Ki (nM)

As a guide, the following entries are already answered.
COc1cc2c(cc1OC)C1=NO[C@@H](CN3CCN(C/C(C)=C/c4ccco4)CC3)[C@@H]1CO2 ... 1.7
COc1cc2c(cc1OC)C1=NO[C@@H](CN3CCN(C/C=C/c4ccc(F)cc4)CC3)[C@@H]1CO2 ... 9
C1=NCC(CC2Cc3ccccc3C2)N1 (centres undefined) ... 3.98
CC(=O)Nc1ccc(OCCCN2CCC(c3noc4cc(F)ccc34)CC2)cc1 ... 16.3

A: CO/C(O)=C1\C(C)=NC(C)=C(C(=O)NCCCN2CCC(c3ccccc3)(c3ccccc3)CC2)C1c1ccc(Cl)c(Cl)c1 (centres undefined)
B: CC(Sc1ccccc1-c1ccccc1)C1=NCCN1 (centres undefined)
Higher Ki: A or B ? Answer by quoting the chosen item's label.
A

====

Please find below Ki data on Alpha-2A adrenergic receptor (Homo sapiens, UniProt P08913) compiled from the literature.
Target: Alpha-2A adrenergic receptor (Homo sapiens, UniProt P08913)
Sequence (P08913 whole entry): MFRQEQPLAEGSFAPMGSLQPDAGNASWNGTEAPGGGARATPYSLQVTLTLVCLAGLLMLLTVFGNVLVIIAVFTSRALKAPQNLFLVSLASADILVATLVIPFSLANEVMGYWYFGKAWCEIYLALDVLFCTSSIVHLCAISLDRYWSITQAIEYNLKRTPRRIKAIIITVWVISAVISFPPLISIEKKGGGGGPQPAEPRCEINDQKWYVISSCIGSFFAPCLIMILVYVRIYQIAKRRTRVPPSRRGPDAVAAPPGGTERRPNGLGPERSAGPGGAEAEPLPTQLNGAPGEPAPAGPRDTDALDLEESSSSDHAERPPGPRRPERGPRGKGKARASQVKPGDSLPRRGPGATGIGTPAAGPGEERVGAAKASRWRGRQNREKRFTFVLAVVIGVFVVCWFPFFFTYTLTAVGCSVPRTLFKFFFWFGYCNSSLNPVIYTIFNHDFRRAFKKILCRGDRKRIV

As a guide, the following entries are already answered.
Fc1ccc(C2Cc3nccn3C2)c(-c2cncnc2)c1 (stereo not drawn) ... > 2.37 µM
O=C(c1ccc(-c2ccccc2)cc1)N1CCN(C(=O)c2ccc3cc[nH]c3c2)CC1 ... > 10 µM

Continue with the next molecule.
Ki reading for Cl.O=C(Nc1ccc2[nH]nc(S(=O)(=O)c3cccc4ccccc34)c2c1)C1CCNCC1 : > 5 µM
